Target Desc: sauren Sphingomyelinase (Homo sapiens, UniProt P17405)
Construct: endogenous in cells; host or cells: human macrophages (treated with compound, then oxidised LDL; lysed, supernatant assayed)
Sequence (P17405 47-631): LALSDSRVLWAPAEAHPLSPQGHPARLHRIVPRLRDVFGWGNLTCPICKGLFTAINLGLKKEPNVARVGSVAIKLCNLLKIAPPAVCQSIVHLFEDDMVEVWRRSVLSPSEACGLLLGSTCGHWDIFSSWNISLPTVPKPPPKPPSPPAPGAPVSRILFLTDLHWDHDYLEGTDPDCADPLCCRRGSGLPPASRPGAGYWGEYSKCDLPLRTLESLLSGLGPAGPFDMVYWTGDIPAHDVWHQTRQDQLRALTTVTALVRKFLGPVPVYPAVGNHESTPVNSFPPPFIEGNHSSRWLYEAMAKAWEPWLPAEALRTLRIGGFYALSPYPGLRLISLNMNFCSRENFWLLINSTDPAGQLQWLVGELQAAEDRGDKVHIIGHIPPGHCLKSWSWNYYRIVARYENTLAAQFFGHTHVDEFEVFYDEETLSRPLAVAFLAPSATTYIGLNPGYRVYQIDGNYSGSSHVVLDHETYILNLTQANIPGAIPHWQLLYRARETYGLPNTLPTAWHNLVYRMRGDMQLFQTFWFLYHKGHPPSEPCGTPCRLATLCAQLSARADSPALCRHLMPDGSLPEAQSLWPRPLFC
Protocol Description: SMase inhibition in cells (activity in cell lysates, BODIPY-FL-C5-sphingomyelin, HPLC)
Assay type: cell-based, Menschliche
Condition Summary: human macrophages pretreated 30 min with compound, then 2 h oxidised LDL (27 µg/ml); lysate activity at pH 5,0; read-out: Hemmung der sauren Sphingomyelinase (Zellen) (IC-50)
Property Measured: pIC50
The read-out pIC50 is expressed as -log10 of concentration in moles per litre.

Hello, please tell me recorded pIC50 for this one: `COc1ccc(CCN(C)CCCn2c3ccccc3c3ccccc32)cc1` 5.05

# return recorded pIC50 for input `COc1ccc(CCN(C)CCN2c3ccccc3CCc3ccccc32)cc1OC` 4.85

Please give measured pIC50 of the following entry: `COc1ccc(CCN(C)CCCn2c3ccccc3c3ccccc32)cc1OC` 5.10

# return recorded pIC50 for input `COc1ccc(CCN(C)CCC=C2c3ccccc3CCc3ccccc32)cc1` 4.70
